The values you see were collected from paper PMC6142817.

Assayed System: AHK3 (Arabidopsis thaliana, UniProt Q9C5U1)
Construct: expressed in transfected cells; host or cells: Escherichia coli strain KMI001, plasmid pSTV28-AHK3
Sequence (Q9C5U1 whole entry): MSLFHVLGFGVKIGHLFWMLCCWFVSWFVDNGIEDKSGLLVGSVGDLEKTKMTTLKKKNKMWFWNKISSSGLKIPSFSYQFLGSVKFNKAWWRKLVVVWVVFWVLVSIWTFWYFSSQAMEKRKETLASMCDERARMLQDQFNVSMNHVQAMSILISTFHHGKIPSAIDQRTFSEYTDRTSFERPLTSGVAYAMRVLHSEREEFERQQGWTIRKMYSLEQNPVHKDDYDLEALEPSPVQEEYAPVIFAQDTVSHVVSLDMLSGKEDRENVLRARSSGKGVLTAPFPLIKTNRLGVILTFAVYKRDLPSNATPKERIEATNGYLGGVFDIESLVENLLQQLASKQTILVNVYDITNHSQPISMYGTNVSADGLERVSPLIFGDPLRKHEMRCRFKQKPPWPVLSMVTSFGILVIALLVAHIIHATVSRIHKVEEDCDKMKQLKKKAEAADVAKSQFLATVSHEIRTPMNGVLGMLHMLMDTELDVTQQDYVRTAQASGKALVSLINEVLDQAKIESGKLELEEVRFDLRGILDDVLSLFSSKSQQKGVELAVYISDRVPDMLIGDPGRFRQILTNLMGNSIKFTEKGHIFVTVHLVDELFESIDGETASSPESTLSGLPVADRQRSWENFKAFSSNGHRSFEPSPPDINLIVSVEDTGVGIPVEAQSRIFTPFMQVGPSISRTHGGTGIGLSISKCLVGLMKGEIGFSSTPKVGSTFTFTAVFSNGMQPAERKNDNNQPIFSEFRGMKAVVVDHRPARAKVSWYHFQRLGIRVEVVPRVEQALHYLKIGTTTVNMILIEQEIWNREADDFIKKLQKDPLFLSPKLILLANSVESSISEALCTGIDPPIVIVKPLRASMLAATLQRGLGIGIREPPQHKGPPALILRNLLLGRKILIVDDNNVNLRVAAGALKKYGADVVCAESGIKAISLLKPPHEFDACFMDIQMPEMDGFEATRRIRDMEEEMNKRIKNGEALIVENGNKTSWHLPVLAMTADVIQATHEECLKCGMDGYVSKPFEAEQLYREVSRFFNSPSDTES
Protocol Notes: Cytokinin receptor activation assay in E. coli (AHK3)
Assay type: cell-based
Test Conditions: E. coli bacterial receptor assay; read-out: AHK3 receptor activation EC50
pEC50: −log10 of the molar value.
The reader will find reported pEC50 values listed item by item below.
Measured Attribute: pEC50

CC(C)=CCNC(=O)Nc1cnns1    5.85
C/C(=C\CNC(=O)Nc1cnns1)CO    6.72

----------
Assayed System: CRE1/AHK4 (Arabidopsis thaliana)
Sequence (Q9C5U0 whole entry): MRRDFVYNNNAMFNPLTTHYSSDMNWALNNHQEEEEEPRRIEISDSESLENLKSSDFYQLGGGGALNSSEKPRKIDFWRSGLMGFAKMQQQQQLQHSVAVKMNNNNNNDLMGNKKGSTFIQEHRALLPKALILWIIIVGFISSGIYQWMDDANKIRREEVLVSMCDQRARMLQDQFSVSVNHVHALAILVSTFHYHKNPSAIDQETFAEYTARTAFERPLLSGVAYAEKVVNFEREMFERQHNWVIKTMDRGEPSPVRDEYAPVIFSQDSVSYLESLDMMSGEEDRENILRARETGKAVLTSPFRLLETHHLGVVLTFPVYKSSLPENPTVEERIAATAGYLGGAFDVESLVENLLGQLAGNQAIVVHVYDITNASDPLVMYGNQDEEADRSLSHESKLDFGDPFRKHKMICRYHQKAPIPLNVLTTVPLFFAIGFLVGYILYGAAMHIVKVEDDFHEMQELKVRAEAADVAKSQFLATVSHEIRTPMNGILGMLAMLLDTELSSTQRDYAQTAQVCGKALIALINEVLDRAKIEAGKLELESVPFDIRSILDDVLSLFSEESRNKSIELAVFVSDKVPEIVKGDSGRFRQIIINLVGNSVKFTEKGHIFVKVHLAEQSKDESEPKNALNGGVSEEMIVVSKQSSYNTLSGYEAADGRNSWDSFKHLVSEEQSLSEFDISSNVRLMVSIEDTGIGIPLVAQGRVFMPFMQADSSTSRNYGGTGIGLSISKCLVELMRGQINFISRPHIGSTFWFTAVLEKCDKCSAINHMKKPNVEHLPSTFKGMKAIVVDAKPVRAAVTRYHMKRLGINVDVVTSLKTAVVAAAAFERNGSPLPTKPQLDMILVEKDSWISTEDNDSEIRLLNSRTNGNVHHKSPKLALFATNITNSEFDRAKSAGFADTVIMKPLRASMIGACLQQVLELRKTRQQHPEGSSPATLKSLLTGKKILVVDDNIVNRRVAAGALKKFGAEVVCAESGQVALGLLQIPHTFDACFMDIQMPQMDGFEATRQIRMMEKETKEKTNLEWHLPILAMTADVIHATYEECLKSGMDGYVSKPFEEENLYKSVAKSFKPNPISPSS
Protocol Notes: Cytokinin receptor activation assay in E. coli (CRE1/AHK4)
Type: cell-based
Design: expressed in transfected cells; host or cells: Escherichia coli strain KMI001, plasmid pIN-IIIAHK4
Test Conditions: E. coli bacterial receptor assay; read-out: CRE1/AHK4 receptor activation EC50
pEC50: −log10 of the molar value.
Measured Attribute: pEC50

C/C(=C\CNC(=O)Nc1cnns1)CO [TD-tZ]    4.49
CC(C)=CCNC(=O)Nc1cnns1 [TD-iP]    5.03
